- experimentalSystem: α-glycosidase (intestinal α-glycosidase; α-glucosidase)
- Construct: crude native extract: supernatant of sonicated rat intestinal acetone powder in saline (100:1 w/v); not purified, isoenzyme not identified
- testDetails: colorimetric p-nitrophenyl release, 96-well plate
- particulars: 5 mM p-nitrophenyl-α-D-glucopyranoside, 100 mM phosphate, pH 6.8, DMSO, 5 min preincubation; crude rat intestinal extract
measureName: pIC50
Scale for pIC50: -log10 of concentration given in mol/L; no unit attached.

q: Quick check: pIC50 of O=C1C[C@@H](c2ccc(O)cc2)Oc2cc(O)cc(O)c21 ?
a: 3.12

q: Quick check: pIC50 of COc1cc(-c2oc3cc(O)c(OC)c(O)c3c(=O)c2O)ccc1O ?
a: 3.08

q: Quick check: pIC50 of COc1cc(O)c2c(c1)OC(c1ccc(O)cc1)C(O)C2=O (stereo not shown) [compound 3, 3,5,4′-trihydroxy,7-methoxy-flavanone] ?
a: 3.10

q: Quick check: pIC50 of C[C@H]1O[C@H](O[C@H]2[C@H](O)[C@@H](O)[C@@H](O[C@H]3[C@H](O)[C@@H](O)C(O)O[C@@H]3CO)O[C@@H]2CO)[C@H](O)[C@@H](O)[C@@H]1N[C@H]1C=C(CO)[C@@H](O)[C@H](O)[C@H]1O (stereo partly shown) [acarbose, reference compound] ?
a: 3.08

q: Quick check: pIC50 of COc1c(O)cc2oc(-c3ccc(O)c(O)c3)c(O)c(=O)c2c1O ?
a: 3.13

q: Quick check: pIC50 of O=C1c2c(O)cc(O)cc2O[C@H](c2ccc(O)cc2)[C@H]1O [compound 1, 3,5,7,4′-tetrahydroxy-flavanone] ?
a: 3.74

q: Quick check: pIC50 of COc1cc(O)c2c(c1)O[C@H](c1ccc(O)cc1)CC2=O ?
a: 3.54
